Organism: Rattus norvegicus
Test: Open TG-GATES - Regimen: Single
Type: toxicity, organism-based, Sprague-Dawley
Parameters: regimen Single, gender Male, age 6 weeks
Conditions: in vivo, po, 100 mg/kg, 9 h, tissue Blood, route gavage, dose level Low
Task for the reader: assign each of the following molecules its reported Bas.
Give bare numbers, in %.

Here is how some molecules turned out for Bas.
{"MOLECULE": "Clc1ccccc1CN1CCc2sccc2C1", "VALUE_MEASURED": 0.2}
{"MOLECULE": "O=C(O)c1cc(/N=N/c2ccc(S(=O)(=O)Nc3ccccn3)cc2)ccc1O", "VALUE_MEASURED": 0}
{"MOLECULE": "O=C(O)c1cn(C2CC2)c2cc(N3CCNCC3)c(F)cc2c1=O", "VALUE_MEASURED": 0}
{"MOLECULE": "CCc1cc(C(N)=S)ccn1 [ETHIONAMIDE]", "VALUE_MEASURED": 0}

Proceed to the following item.
Incoming: For the molecule `C[C@H](CS)C(=O)N1CCC[C@H]1C(=O)O` , what Bas is on record?
Outgoing: 0
